Cited source: patent US20250026827A1

target: T1, human SIRPα on cells (human, UniProt P78324 31-504); test: flow cytometry;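 note: antibodies tested at 1 µg/ml for 30 min on ice against receptor-expressing cells, detected with a PE-labelled secondary antibody, read as mean fluorescence intensity relative to background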
T1 construct: Whole entry

binder: SB-2 (antibody, V domains shown, IgG; also called SB-2 (p)) VH: QVQLVESGGGVVQPGRSLRLSCAASGFTFSSYGMNWVRQAPGKGLEWVAVIWYDGSNKYYADSVKGRFTISRDNSKNTLYLQMNSLRAEDTAVYYCARDQTAAAAIWGMDVWGQGTTVTVSS VL: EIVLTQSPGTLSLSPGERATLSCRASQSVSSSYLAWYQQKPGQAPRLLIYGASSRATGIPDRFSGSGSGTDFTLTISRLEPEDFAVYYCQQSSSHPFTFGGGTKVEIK
FOB: 3 fold over background

binder: SB-43 (antibody, V domains shown, IgG) VH: QVQLQESGPGLVKPSETLSLTCAVSGYSISSGYYWAWIRQPPGKGLEWIGSIYHSGSTYYNPSLKSRVTISVDTSKNQFSLKLSSVTAADTAVYYCARDAPGYPMLGMDVWGQGTTVSVSS VL: EIVLTQSPATLSLSPGERATLSCRASQSVSSYLAWYQQKPGQAPRLLIYDASKRATGIPARFSGSGSGTDFTLTISSLEPEDFAVYYCQQRFDFPITFGGGTKVEIK
FOB: 2.3 fold over background

binder: SB-45 (antibody, V domains shown, IgG) VH: QVQLQESGPGLVKPSETLSLTCAVSGYSISSGYYWAWIRQPPGKGLEWIGSIYHSGSTYYNPSLKSRVTISVDTSKNQFSLKLSSVTAADTAVYYCARDLSRGYAVSGMDVWGQGTTVTVSS VL: VLTQSPGTLSLSPGERATLSCRASQSVSSSFLAWYQQKPGQAPRLLIYGASSRATGIPDRFSGSGSGTDFTLTISRLEPEDFAVYYCQQVVSVPTFGGGTKVEIK
FOB: 2.5 fold over background
